Molecular target: human B1R receptor (hB1R) (Homo sapiens)
Construct: expressed in transfected cells; host or cells: CHO K1 cells
Sequence (P46663 1-353): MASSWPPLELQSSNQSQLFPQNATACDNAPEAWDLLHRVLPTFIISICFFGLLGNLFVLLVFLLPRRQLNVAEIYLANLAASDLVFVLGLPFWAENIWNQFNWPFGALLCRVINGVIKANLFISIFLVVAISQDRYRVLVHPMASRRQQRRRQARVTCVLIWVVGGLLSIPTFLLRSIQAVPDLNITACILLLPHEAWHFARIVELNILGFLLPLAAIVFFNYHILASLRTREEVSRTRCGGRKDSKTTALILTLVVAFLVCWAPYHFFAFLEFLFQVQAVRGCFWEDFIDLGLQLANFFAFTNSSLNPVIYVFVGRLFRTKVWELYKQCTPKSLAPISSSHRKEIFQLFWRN
Experiment: Functional investigation on the bradykinin 1 receptor (B1R), FLIPR Ca2+ assay, hB1R cells
Format: cell-based
Conditions: test substance 10 μM; CHO K1 cells transfected with human B1R gene; Fluo-4 Ca2+ signal; agonist Lys-Des-Arg9-bradykinin at EC80; % of maximum achievable inhibition; read-out: B1R antagonism, human [10 μM] % inhibition
Counter-ions that a name gives are not always drawn.
Recorded inhibition at 10 µM values for a group of compounds are listed next.
READOUT_NAME: inhibition at 10 µM (%)

>>> experimental_value("CN1CCC(N2CCN(S(=O)(=O)CCC[C@@H]3CCCN3S(=O)(=O)c3c(Cl)cc(Cl)cc3Cl)CC2)CC1")
104
>>> experimental_value("Cc1cc(C)c(S(=O)(=O)N2CCCC(CCCS(=O)(=O)N3CCC(CCN4CCCC4)CC3)C2)c(C)c1 (centres unmarked) [Example 11, hydrochloride]")
65
>>> experimental_value("Cc1cccc(Cl)c1S(=O)(=O)N1CCC[C@H]1CCCS(=O)(=O)N1CC(N2[C@@H]3CC[C@H]2C[C@H](Oc2ccncc2)C3)C1")
96
>>> experimental_value("O=S(=O)(CCC[C@@H]1CCCN1S(=O)(=O)c1ccccc1C(F)(F)F)N1CCC2(CCN(c3ccncc3)CC2)CC1 [Example 68, hydrochloride]")
100
>>> experimental_value("Cc1cccc(Cl)c1S(=O)(=O)N1CCC[C@H]1CCCS(=O)(=O)N1CCN(C2CCN(C)CC2)CC1")
108
>>> experimental_value("O=S(=O)(CCC[C@@H]1CCCN1S(=O)(=O)c1cccc(Cl)c1Cl)N1CCC(Oc2ccncc2)CC1")
71
>>> experimental_value("Cc1cc(S(=O)(=O)N2CCC(CCS(=O)(=O)N3CCC(CCN4CCCC4)CC3)C2)c(C)cc1Cl (centres unmarked)")
77
>>> experimental_value("O=S(=O)(CCC[C@@H]1CCCN1S(=O)(=O)c1cccc2ccccc12)N1[C@@H]2CC[C@H]1C[C@H](Oc1ccncc1)C2")
56
>>> experimental_value("COc1cc(C)c(S(=O)(=O)N2CCC[C@H]2CCCS(=O)(=O)N2CCC3(CCC(Oc4ccncc4)CC3)CC2)c(C)c1 [Example 66, hydrochloride]")
100
>>> experimental_value("COc1cc(C)c(S(=O)(=O)N2CCC[C@H]2CCCS(=O)(=O)N2CCC3(CCN(c4ccncc4)C3)C2)c(C)c1 (some centres unmarked)")
100
>>> experimental_value("COc1cc(C)c(S(=O)(=O)N2CCC[C@H]2CCCS(=O)(=O)N2CC(N3[C@@H]4CC[C@H]3C[C@H](Oc3ccncc3)C4)C2)c(C)c1")
99
